Test system: K4 kissing-loop RNA reporter;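 note: bound reporter read as fluorescence of individual clusters on recovered sequencing chips by microscopy, with normalized cluster intensities fitted with a binding model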
runDescription: apparent KD of K4 kissing-loop reporter; higher = weaker reporter binding
testSettings: Eterna round: R107; input ligand: theophylline 20 uM
quantityKind: apparent KD of K4 kissing-loop reporter (nM)
Report the value in nM with no unit label.

get_value(item= GAAGGUCAAAGACCUUCGUGCACAACUGAUACCAGUCGCGAAAGCGACCCUUGGCAGCAGGGCAGUGAUGUUGCCAGUGCACAAA [Omei KL Theo A SS A v3] , readout=apparent KD of K4 kissing-loop reporter) returns 124

Documented apparent KD of K4 kissing-loop reporter of UUAACCAACAGCGAUACCAGCGUGGAGUGAUGUUCCGAGGAUCGGAGUGAUGUUCCGAAGCGCCCUUGGCAGCGCAGAAGCGCCA [Exclusion Theophylline B GF9] : 139

Reported apparent KD of K4 kissing-loop reporter of UGACUUGCCUGAGGAUAUCUAGGAUAUCCAUAAAAGAAAAUAAUAAUCCAGUGAUGUUGGAGAAGGAGAGAAGGCAGGUAAGUCU [KL-XFMN-B17 #DoubleAptamer #SwitchBubble] : 112

get_value(item= AGACCACAAAGUGGUCAGUGUUCGCUCCGGCGAGGACCGGUACGGCCGCCACUCGCGAGUGAUGUUCGCGAGCGGAGCGAACACA [Omei KL Tryp A Exc A v2] , readout=apparent KD of K4 kissing-loop reporter) returns 88.9

Documented apparent KD of K4 kissing-loop reporter of AUACGUUUUUGUGAUACCAGACAUGUGAGUGAUGUUUACAUAUAUAUUUAAUAUUUAGCUGUCCCUUGGCAGCACUGUUUAUUUA [JR_ExcTheophyB_Sub004] : 437

Looking up GCAAAACGCAGUGAUGUUGCGAUAUCGGAAGGAGCGCGUGAAAACGCAGGUAGGUCGCCGAUUCAGUGAGUAUCUCGCUGUUUGC [Arginine A K4 18] , I found its apparent KD of K4 kissing-loop reporter recorded as 259
